The measured values listed here are drawn from ChEMBL document CHEMBL1201862.

System: SNB-75
EXPERIMENTAL DETAILS: NCI tumour cell line growth inhibition, 48 h
Active and inactive are the calls of the source. Cut-off read from the data, not from the text of the source: active = GI50 up to about 1.1 µM and inactive = higher.

# COMPOUND, GI50
records = [
    ("CC1(C)N=C(N)N=C(N)N1c1cccc(OCc2cccc(N)c2)c1", "> 100 µM (inactive)"),
    ("N#CC(C#N)=Cc1ccc2c(c1)OC(Cl)O2 (stereo unspecified)", "25.8 µM (inactive)"),
    ("Cc1sc(C)c2c1C(=O)CC2N (stereo unspecified)", "> 50.1 µM (inactive)"),
    ("O=C(Nc1cc(Cl)ccc1Cl)C(=O)C(c1cnc2ccccc2n1)[N+](=O)[O-] (stereo unspecified)", "> 100 µM (inactive)"),
    ("CN(C)CCOc1cccc2c1C(=O)c1ccccc1C2=O", "14.9 µM (inactive)"),
    ("CCc1ccccc1NC(=O)C1=C(C)NC(C)=C(C(=O)Nc2ccccc2CC)C1c1ccc(NC(C)=O)cc1", "21.4 µM (inactive)"),
    ("CSc1ccc(C2OC(=O)c3ccccc32)c2ccccc12 (stereo unspecified)", "14.2 µM (inactive)"),
    ("CCOC(=O)c1c(N2CCOCC2)ncn(-c2cccc(Cl)c2)c1=O", "> 100 µM (inactive)"),
    ("COC(=O)[C@@]12C3=NO[C@]1(C(=O)OC)C(O[Si](C)(C)C(C)(C)C)[C@H]1OC(C)(C)O[C@H]1[C@@H]2C(OCc1ccccc1)CC3 (stereo partly specified)", "17.9 µM (inactive)"),
    ("C=C(C(=O)O)[C@@H]1C[C@@H]2O[C@H]1[C@@H](O)[C@@H](C)CCCC(C)=CCC[C@@]2(C)O", "> 100 µM (inactive)"),
    ("c1ccc(C2=NOC3(c4ccccc4)SC4CCCCC4CN23)cc1 (stereo unspecified)", "18.2 µM (inactive)"),
    ("CSc1ccc2c(cc1=O)[C@@H](NC(=O)c1ccc([N+](=O)[O-])cc1)CCc1cc(O)c(O)c(O)c1-2", "> 100 µM (inactive)"),
    ("C=CCNC1=NC(=O)C(CC(=O)Nc2ccc([N+](=O)[O-])cc2[N+](=O)[O-])S1 (stereo unspecified)", "66.5 µM (inactive)"),
    ("Cc1ccc(S[C@@H](C)[C@@](O)(C(N)=O)c2ccccc2)cc1", "> 100 µM (inactive)"),
    ("O=C(O)CCC(NC(=O)c1ccc(Nc2nc3cc(C(F)(F)F)ccc3nc2-c2ccccc2)cc1)C(=O)O (stereo unspecified)", "> 79.6 µM (inactive)"),
    ("CC1=NN(c2nc(N)nc(CBr)n2)C(C)(C)C1", "9.75 µM (inactive)"),
    ("c1ccc2c(c1)ncn2C1CCCCO1 (stereo unspecified)", "> 100 µM (inactive)"),
    ("COc1ccc2c(c1)-c1nc(=S)n(CCCN(C)C)c3ccc([N+](=O)[O-])c(c13)N2", "6.32 µM (inactive)"),
    ("CCOP(=O)(OCC)C(Nc1cccc(F)c1)c1ccccc1 (stereo unspecified)", "20.7 µM (inactive)"),
    ("CC1(C)OC2[C@@H](CO[C@@]3([C@H]4OC(C)(C)O[C@@H]4CO)OC(C)(C)O[C@@H]23)O1 (stereo partly specified)", "> 100 µM (inactive)"),
    ("C=CCNc1nc2c(N)ncnc2s1", "> 10 µM (inactive)"),
]
